Where do these numbers come from? They come from PubChem BioAssay.

# tgt: NADPH oxidase 4 (Homo sapiens)
# experimental details: NOX4-dependent H2O2 signal modulators, primary screen, NOX inhibitor project, cell-based, HEK293-NOX4, tetracycline-induced, Amplex Red fluorescence (AID 1160)
# condition context: 45 min, higher = more signal, called active from +8 up or from −8 down
# maps each entry to its z-score
Reply with the value as a number alone.

The cases that follow already have their z-score on record.
{"compound string": "C=C[C@@H](CO)NS(=O)(=O)c1ccc(Br)cc1", "experimental value": 1.05}
{"compound string": "CC(C)C[C@@H]1NC(=O)[C@@H]2C[C@H](C(=O)NCCCCCNC(=O)CS)[C@H](c3ccc(O)cc3)N2C1=O", "experimental value": -1.35}
{"compound string": "COCCCNC(=O)[C@@]1(Cc2ccccc2I)c2ccccc2C(=O)N(C2CCCCC2)[C@H]1c1ccc(CO)cc1", "experimental value": -1.2}
{"compound string": "COC(=O)[C@@]1(Cc2ccc(F)cc2)[C@H]2c3cc(C(=O)N(C)C)n(Cc4ccsc4Br)c3C[C@H]2CN1C(=O)c1ccccc1", "experimental value": -5.46}
{"compound string": "C=C(C(=O)CC[C@@H](OC(=O)c1ccccc1-c1ccccc1C(=O)O)c1ccc(OCCO)cc1)C(C)C", "experimental value": 0.123}

### Prompt Given the entry C=CCOC(=O)[C@@H]1[C@H]2C(=O)O[C@H](c3ccccc3)[C@H](c3ccccc3)N2[C@H](c2ccc(OCCOC(=O)[C@@H]3C[C@@H]4C(=O)N[C@@H](CC(C)C)C(=O)N4[C@@H]3c3ccc(O)cc3)cc2)[C@@]12C(=O)Nc1ccc(I)cc12 , report its measured z-score.
### Response 0.64

### Prompt Given the entry COc1ccc([Si](C)(C)[C@@H]2[C@@H](CC(=O)N(CCO)Cc3ccccc3)O[C@]3(C(=O)N(Cc4cccc(I)c4)c4ccccc43)[C@H]2C)cc1 , report its measured z-score.
### Response 1.19
